MEASUREMENT_NOTES: Ratio of drug level in rat brain to plasma assessed as permeability coefficient at 0.2 mg/kg, iv
Type: ADME, organism-based
Can you tell me Kp for the items I'm about to list?
// print number alone

INPUT: Identify the reported Kp for the following entry. `O=C1CCSC[C@@H](C(=O)Nc2cc(Br)cc(Br)c2)N1`
OUTPUT: 0.19

INPUT: Identify the reported Kp for the following entry. `O=C1CCSC[C@@H](C(=O)Nc2cc(Cl)cc(Br)c2)N1`
OUTPUT: 0.45

====

MEASUREMENT_NOTES: Protein binding in human plasma assessed as unbound fraction
Format: ADME, cell-free
METRIC_NAME: fraction unbound
// print number alone

INPUT: Identify the reported fraction unbound for the following entry. `O=C1CCSC[C@@H](C(=O)Nc2cc(Cl)cc(Br)c2)N1`
OUTPUT: 0.011

INPUT: Identify the reported fraction unbound for the following entry. `O=C1CCSC[C@@H](C(=O)Nc2cccc(Cl)c2)N1`
OUTPUT: 0.03

INPUT: Identify the reported fraction unbound for the following entry. `O=C1CCSC[C@@H](C(=O)Nc2cc(Br)cc(Br)c2)N1`
OUTPUT: 0.007
